Where do the numbers come from? From patent US20240150440A1.

target: T1, SARS-CoV-2 Beta Variant RBD (SARS-CoV-2 Beta variant); test: ELISA, RBD coated
T1 construct: domain: RBD; coated on ELISA plates
Labels assigned by EC50 range: band 1 (below 20 nM), band 2 (20 nM to below 100 nM), band 3 (100 nM or more)

Previously resolved entries follow.
PP904 MBP-5HVZ-R5b-C5-H6 (VHH, Form: Dimer) VHH: QVQLVESGGGLVQPGGSLRLSCAASGSPFKTQTVHWFRQAPGKGREWVASITSGSGTQYMDSVKGRFTISRDNAKNTVYLQMNSLKPEDTAVYYCAAANDGYGVDWGQGTQVTVSS : band 3
PP1154 MBP-5HVZ-PAPA-R5d-G1-H6 (VHH, Form: Dimer) VHH: QVQLVESGGGLVQPGGSLRLSCAASGSIFGINDVHWFRQAPGKEREFVATITNGLSARYKDSVKGRFTISRDNAKNTVYLQMNSLKPEDTAVYYCAAQVYITTYELYDYWGQGTQVTVSS : band 2
PP930 MBP-5HVZ-R2b-D4-H6 (VHH, Form: Dimer) VHH: QVQLVESGGGLVQPGGSLRLSCAASGSYASIASMHWFRQAPGKQREFVAGLTSGGSRIYGDSVKGRFTISRDNAKNTVYLQMNSLKPEDTAVYYCTALILHYAGMYDYWGQGTQVTVSS : band 1
PP1149 MBP-5HVZ-PAPA-R5a-E5-H6 (VHH, Form: Dimer) VHH: QVQLVESGGGLVQPGGSLRLSCAASGYDFDILRMAWFRQAPGKEREMVAAITSAESVNYEDSVKGRFTISRDNAKNTVYLQMNSLKPEDTAVYYCATYDYTDDYGYASWGQGTQVTVSS : band 2
PP1105 MBP-5HVZ-PAPA-RN-20-H6 (VHH, Form: Dimer) VHH: QVQLVESGGGLVQPGGSLRLSCAASGNYFEINKMHWFRQAPGKQREFVATIGSGGSTAYADSVKGRFTISRDNAKNTVYLQMNSLKPEDTAVYYCNALIYLADRRDGYYSYDYWGQGTQVTVSS : band 2

Which class holds PP934 MBP-5HVZ-S3a-H2-H6 (VHH, Form: Dimer) VHH: QVQLVESGGGLVQPGGSLRLSCAASGAAFSKNALHWFRQAPGKGREWVASITSGSGTQYMDSVKGRFTISRDNAKNTVYLQMNSLKPEDTAVYYCAALAYSGGYDYWGQGTQVTVSS ?
band 1

Each binder maps to one class by EC50. Which class for PP1102 MBP-5HVZ-PAPA-RN-17-H6 (VHH, Form: Dimer) VHH: QVQLVESGGGLVQPGGSLRLSCAASGSMYSRAVMHWFRQAPGKEREGVASIGRTGDSYYADSVKGRFTISRDNAKNTVYLQMNSLKPEDTAVYYCAADNLDVVYGNRYWGQGTQVTVSS ?
band 1

Into which category would you place PP1097 MBP-5HVZ-PAPA-RN-5-H6 (VHH) VHH: QVQLVESGGGLVQPGGSLRLSCAASGSSFRILAMHWYRQAPGKNREWVAVITSNGNTYYADSVKGRFTISRDNAKNTVYLQMNSLKPEDTAVYYCNADTLDLDDGATYNYWGQGTQVTVSS ?
band 2

Which class is correct for the following binder? PP1148 MBP-5HVZ-PAPA-R5a-C5-H6 (VHH, Form: Dimer) VHH: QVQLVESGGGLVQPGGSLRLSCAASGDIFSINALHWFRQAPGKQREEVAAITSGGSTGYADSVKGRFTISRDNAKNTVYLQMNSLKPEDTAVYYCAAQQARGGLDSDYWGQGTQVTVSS
band 2

Could you place PP1095 MBP-5HVZ-PAPA-RN-2-H6 (VHH) VHH: QVQLVESGGGLVQPGGSLRLSCAASGSYFSKNAVHWYRQAPGKGREWVAALTNSGSGNYKDSVKGRFTISRDNAKNTVYLQMNSLKPEDTAVYYCTANISESTGQGYDYWGQGTQVTVSS in its proper category? Many thanks.
band 3
